- subject of test: human GIRK1/4 channels (Homo sapiens, UniProt P48544+P48549)
- Construct: Full-length human GIRK1 cDNA was cloned from HuH cell- and HeLa cell-derived cDNA libraries; Full-length GIRK4 cDNA was amplified from a human heart cDNA library; expressed in transfected cells; host or cells: FLP-IN-CHO cells (Invitrogen)
- Sequence (P48549 whole entry): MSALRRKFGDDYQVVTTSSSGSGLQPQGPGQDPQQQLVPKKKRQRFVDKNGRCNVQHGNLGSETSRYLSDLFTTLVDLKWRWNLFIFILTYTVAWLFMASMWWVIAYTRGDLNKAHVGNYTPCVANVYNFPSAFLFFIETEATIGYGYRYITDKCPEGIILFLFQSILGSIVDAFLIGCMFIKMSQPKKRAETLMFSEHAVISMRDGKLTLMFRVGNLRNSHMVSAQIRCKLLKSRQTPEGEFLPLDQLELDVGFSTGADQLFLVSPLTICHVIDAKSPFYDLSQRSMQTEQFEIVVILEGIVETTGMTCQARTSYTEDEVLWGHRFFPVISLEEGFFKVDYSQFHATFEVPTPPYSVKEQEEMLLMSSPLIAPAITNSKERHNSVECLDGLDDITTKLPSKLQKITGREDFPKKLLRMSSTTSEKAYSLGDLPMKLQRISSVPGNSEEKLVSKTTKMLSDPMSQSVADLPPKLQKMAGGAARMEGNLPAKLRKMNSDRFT
- Sequence (P48544 whole entry): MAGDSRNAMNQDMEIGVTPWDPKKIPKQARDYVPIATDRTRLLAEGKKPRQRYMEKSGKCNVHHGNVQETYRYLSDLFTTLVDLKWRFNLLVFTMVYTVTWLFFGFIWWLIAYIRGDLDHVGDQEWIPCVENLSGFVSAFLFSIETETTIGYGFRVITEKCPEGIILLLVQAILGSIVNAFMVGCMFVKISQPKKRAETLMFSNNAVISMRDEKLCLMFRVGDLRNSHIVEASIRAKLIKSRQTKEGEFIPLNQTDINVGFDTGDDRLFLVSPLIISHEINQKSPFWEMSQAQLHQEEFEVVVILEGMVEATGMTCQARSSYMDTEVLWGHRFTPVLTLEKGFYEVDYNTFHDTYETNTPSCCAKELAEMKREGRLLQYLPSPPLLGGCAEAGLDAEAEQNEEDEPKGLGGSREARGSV
- assay explanation: Measurement of human GIRK1/4 channel current by whole-cell patch clamp method (human GIRK1/4-expressing CHO cell line)
- Format: cell-based
- applied conditions: whole-cell patch clamp, human GIRK1/4-expressing CHO cells; step end current at −120 mV; test compound 0.1, 1, 10 μM; read-out: GIRK¼ IC50
Where a name gives a salt, the structure may show the parent alone.
value kind: IC50 (nM)

Known IC50 results, listed for orientation:
| molecule | subject of test | IC50, nM |
| --- | --- | --- |
| CCN1C(=O)C(C)(C)C(=O)N(C)c2cc(OCCCN(CCn3ccc4oc(C)cc4c3=O)Cc3ccncc3)ccc21 [Example 464, dihydrochloride] | human GIRK1/4 channels (Homo sapiens, UniProt P48544+P48549) | 3200 |
| CCN1C(=O)C(C)(C)C(=O)N(CC)c2cc(OCCCN(CCc3cccnc3)Cc3ccncc3)ccc21 [Example 14, trihydrochloride] | human GIRK1/4 channels (Homo sapiens, UniProt P48544+P48549) | 720 |
| CCN1C(=O)C(C)(C)C(=O)N(C)c2cc(OCCCN(CCn3ccc4occc4c3=O)Cc3cccnc3C)ccc21 | human GIRK1/4 channels (Homo sapiens, UniProt P48544+P48549) | 500 |
| CCN1C(=O)C(C)(C)C(=O)N(C)c2cc(OCCCN(CCn3ccc4occc4c3=O)Cc3cccnc3)ccc21 | human GIRK1/4 channels (Homo sapiens, UniProt P48544+P48549) | 5200 |
| CCN1C(=O)C(C)(C)C(=O)N(C)c2cc(OCCCN(CCn3ccc4ccccc4c3=O)Cc3ccco3)ccc21 | human GIRK1/4 channels (Homo sapiens, UniProt P48544+P48549) | 270 |
| CCN1C(=O)C(C)(C)C(=O)N(C)c2cc(OCCCN(CCn3ccc4ccoc4c3=O)Cc3cccs3)ccc21 | human GIRK1/4 channels (Homo sapiens, UniProt P48544+P48549) | 980 |
| CCN1C(=O)C(C)(C)C(=O)N(C)c2cc(OCCCN(CCn3ccc4ccsc4c3=O)Cc3ccncc3)ccc21 | human GIRK1/4 channels (Homo sapiens, UniProt P48544+P48549) | 5100 |
| CCN1C(=O)C(C)(C)C(=O)N(C)c2cc(OCCCN(CCc3cccnc3)Cc3ccncc3)ccc21 [Example 8, trihydrochloride] | human GIRK1/4 channels (Homo sapiens, UniProt P48544+P48549) | 930 |
| CCN1C(=O)C(C)(C)C(=O)N(C)c2cc(OCCCN(CCc3cccnc3)S(=O)(=O)c3ccccc3)ccc21 [Example 628, hydrochloride] | human GIRK1/4 channels (Homo sapiens, UniProt P48544+P48549) | 2500 |
| CCN1C(=O)C(C)(C)C(=O)N(C)c2cc(OCCCN(CCn3ccc4ccoc4c3=O)Cc3ccc(C(F)(F)F)cc3)ccc21 | human GIRK1/4 channels (Homo sapiens, UniProt P48544+P48549) | 330 |

a: CCN1C(=O)C(C)(C)C(=O)N(C)c2cc(OCCCN(CCn3c(=O)ccc4ccccc43)Cc3ccncc3)ccc21
b: CCN1C(=O)C(C)(C)C(=O)N(C)c2cc(OCCCN(CCn3ccc4sccc4c3=O)Cc3cccnc3)ccc21
c: CCN1C(=O)C(C)(C)C(=O)N(C)c2cc(OCCCN(CCc3cccnc3)Cc3ccccc3-c3cccnc3)ccc21
Could you please sort these 3 entries by IC50 from high to low? List each label, following the requested order.
a, c, b
(a: 920 nM, c: 220 nM, b: 50 nM)

====

- subject of test: human GIRK1/4 channels (Homo sapiens, UniProt P48544+P48549)
- Construct: Full-length human GIRK1 cDNA was cloned from HuH cell- and HeLa cell-derived cDNA libraries; Full-length GIRK4 cDNA was amplified from a human heart cDNA library; expressed in transfected cells; host or cells: FLP-IN-CHO cells (Invitrogen)
- assay explanation: Measurement of human GIRK1/4 channel current by whole-cell patch clamp method (human GIRK1/4-expressing CHO cell line)
- Assay type: cell-based
- applied conditions: whole-cell patch clamp, human GIRK1/4-expressing CHO cells; step end current at −120 mV; test compound 0.1, 1, 10 μM; read-out: GIRK¼ IC50
Counter-ions that a name gives are not always drawn.
value kind: IC50 (nM)

| compound | numeric result |
| --- | --- |
| CCN1C(=O)C(C)(C)C(=O)N(C)c2cc(OCCCN(CCn3ccc4occc4c3=O)Cc3cnccc3C)ccc21 [Example 590] | 2400 |

a: CN(CCN(CCCOc1ccc2c(c1)N(C)C(=O)C(C)(C)C(=O)N2C)Cc1ccncc1)C(=O)c1ccccc1 [Example 45, dihydrochloride]
b: CN1C(=O)C(C)(C)C(=O)N(C)c2cc(OCCCN(CCc3cccnc3)Cc3ccncc3)ccc21 [Example 19, trihydrochloride]
Look at a and b . Which one has the lower recorded IC50 number? Mark your selection by writing its label.
b
(b: 1400 nM, a: 2150 nM)

P: CCN1C(=O)C(C)(C)C(=O)N(C)c2cc(OCCCN(CCn3ccc4ccccc4c3=O)Cc3ccc(C#N)cc3)ccc21 [Example 85]
Q: CCN1C(=O)C(C)(C)C(=O)N(C)c2cc(OCCCN(CCn3ccc4ccccc4c3=O)S(=O)(=O)c3ccccc3)ccc21 [Example 634]
Quick check, higher IC50 between P and Q ? Mark your selection by writing its label.
Q

1: CCN1C(=O)C(C)(C)C(=O)N(C)c2cc(OCCCN(CCn3ccc4oc(C)cc4c3=O)Cc3cnccc3C)ccc21 [Example 573]
2: CCCc1ncccc1CN(CCCOc1ccc2c(c1)N(C)C(=O)C(C)(C)C(=O)N2CC)CCn1ccc2oc(C)cc2c1=O [Example 611, dihydrochloride]
3: CCCN1C(=O)C(C)(C)C(=O)N(C)c2cc(OCCCN(CCc3cccnc3)Cc3ccncc3)ccc21 [Example 10, trihydrochloride]
4: CCN1C(=O)C(C)(C)C(=O)N(C)c2cc(OCCCN(CCc3cccnc3)C(=O)c3ccccc3)ccc21 [Example 633, hydrochloride]
Order the records, beginning with the lowest IC50 and ending with the highest. List each label, following the requested order.
2, 1, 3, 4
(2: 370 nM, 1: 1500 nM, 3: 3600 nM, 4: 8400 nM)

====

- subject of test: human Kv1.5 channels (Homo sapiens)
- Construct: Full-length human Kv1.5 cDNA was cloned from a human heart cDNA library
- Sequence (P22460 whole entry): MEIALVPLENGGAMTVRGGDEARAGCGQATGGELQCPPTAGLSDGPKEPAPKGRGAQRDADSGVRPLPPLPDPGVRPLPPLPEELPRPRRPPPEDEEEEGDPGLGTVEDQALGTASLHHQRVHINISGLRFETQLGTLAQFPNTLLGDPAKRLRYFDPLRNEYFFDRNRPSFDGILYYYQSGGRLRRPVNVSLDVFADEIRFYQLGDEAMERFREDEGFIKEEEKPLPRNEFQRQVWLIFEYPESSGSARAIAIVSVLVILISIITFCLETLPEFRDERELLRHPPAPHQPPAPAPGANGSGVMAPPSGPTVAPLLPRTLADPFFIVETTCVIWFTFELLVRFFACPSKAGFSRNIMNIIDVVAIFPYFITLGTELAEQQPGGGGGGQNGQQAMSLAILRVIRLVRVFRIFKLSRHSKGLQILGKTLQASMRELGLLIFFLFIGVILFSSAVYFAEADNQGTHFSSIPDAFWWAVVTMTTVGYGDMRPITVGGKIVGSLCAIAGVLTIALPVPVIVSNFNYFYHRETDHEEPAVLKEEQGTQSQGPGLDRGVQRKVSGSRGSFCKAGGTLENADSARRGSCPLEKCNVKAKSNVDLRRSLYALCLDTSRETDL
- assay explanation: Measurement of human Kv1.5 channel current by whole-cell patch clamp method (human Kv1.5-expressing CHO-K1 cell line)
- applied conditions: human Kv1.5-expressing CHO-K1 cells, step end current at +40 mV, test compound 0.1, 1, 10 μM
- Experimental: Pharmacological Test 1 (1) Production of Human Kv1.5-Expressing CHO-K1 Cell Lines CHO-K1 cell lines stably expressing human Kv1.5 channels were prepared in the following manner. […] The obtained human Kv1.5 cDNA was inserted into a plasmid encoding a CMV promoter and a G418 resistance marker to produce a Kv1.5 expression vector. […] The amount of Kv1.5 channel expression in the single colonies was quantified at the mRNA level by RT-PCR and then quantified at the protein level by western blotting. […]
Counter-ions that a name gives are not always drawn.
value kind: IC50 (µM)

Known IC50 results, listed for orientation:
| compound | IC50 / µM |
| --- | --- |
| CCN1C(=O)C(C)(C)C(=O)N(C)c2cc(OCCCN(CCc3cccnc3)Cc3ccncc3)ccc21 [Example 8, trihydrochloride] | 0.4 |
| CCN1C(=O)C(C)(C)C(=O)N(C)c2cc(OCCCN(CCn3ccc4oc(C)cc4c3=O)Cc3ccncc3)ccc21 [Example 464, dihydrochloride] | 0.44 |
| CN1C(=O)C(C)(C)C(=O)N(C)c2cc(OCCCN(CCc3cccnc3)Cc3ccnc4ccccc34)ccc21 [Example 51, trihydrochloride] | 0.21 |
| CCN1C(=O)C(C)(C)C(=O)N(C)c2cc(OCCCN(CCn3ccc4occc4c3=O)Cc3cccnc3)ccc21 | 0.39 |
| CCN1C(=O)C(C)(C)C(=O)N(C)c2cc(OCCCN(CCn3ccc4ccccc4c3=O)Cc3ccco3)ccc21 | 0.27 |

I: CCN1C(=O)C(C)(C)C(=O)N(C)c2cc(OCCCN(CCc3cccnc3)Cc3ccncc3C)ccc21 [Example 54, trihydrochloride]
II: CCN1C(=O)C(C)(C)C(=O)N(C)c2cc(OCCCN(CCn3ccc4ccccc4c3=O)Cc3ccc(C#N)cc3)ccc21
III: CCN1C(=O)C(C)(C)C(=O)N(C)c2cc(OCCCN(CCc3cccnc3)S(=O)(=O)c3ccccc3)ccc21 [Example 628, hydrochloride]
Could you please sort these 3 entries by IC50 from high to low? List each label, following the requested order.
III, I, II

P: CCN1C(=O)C(C)(C)C(=O)N(C)c2cc(OCCCN(CCn3ccc4ccccc4c3=O)S(=O)(=O)c3ccccc3)ccc21
Q: CCCN1C(=O)C(C)(C)C(=O)N(C)c2cc(OCCCN(CCc3cccnc3)Cc3ccncc3)ccc21 [Example 10, trihydrochloride]
R: Cc1ccccc1CN(CCCOc1ccc2c(c1)N(C)C(=O)C(C)(C)C(=O)N2C)CCc1cccnc1 [Example 50, dihydrochloride]
Could you please sort these 3 entries by IC50 from high to low? List each label, following the requested order.
Q, P, R

A: CCN1C(=O)C(C)(C)C(=O)N(C)c2cc(OCCCN(CCn3ccc4ccoc4c3=O)Cc3ccccc3C)ccc21
B: CN1C(=O)C(C)(C)C(=O)N(C)c2cc(OCCCN(CCc3cccnc3)Cc3ccncc3)ccc21 [Example 19, trihydrochloride]
Quick check, higher IC50 between A and B ? Mark your selection by writing its label.
B
